- Assay remarks: protein stability index of a GFP-peptide fusion (yeast GPS) (PSI 1-4); higher = more stable; sorted into four equal gates, so the index is relative within each strain
- Run parameters: doa10∆
Measured protein stability index, listed per entry for reference.
Measurement label: protein stability index

>>> result_number("NLQTADTVIIFDTDWNP [SNF2]")
2.57
>>> result_number("EMNLHVPQTEEARAEAI [RPO31]")
3.09
>>> result_number("KDTTGPKAISNFLIKLS [YCS4]")
2.09
>>> result_number("NLRLKILTIIEEYKKSL [GRR1]")
1.65
>>> result_number("YFKLSITSFDQDVDDAH [POP8]")
1.78
>>> result_number("LIASHYGVSFFTIQSFV [BRR2]")
1.92
>>> result_number("PNIHQNLLPKKSAKATK [HTA1]")
2.53
>>> result_number("TILYLNVFHGLCAGANN [IRR1]")
1.3
>>> result_number("DRAQNSYQPMYQRPMQV [SSN3]")
1.55
>>> result_number("QSDSAKVEIKKVNSRDD [PRP28]")
3.08
>>> result_number("DMPSLRLIDLSGCENIT [GRR1]")
2.33
>>> result_number("SIWQVKDQLPDLESMGL [MED7]")
2.81
>>> result_number("VEVIKQLSLDASKTNLR [GAL11]")
2.51
>>> result_number("VFSHAQTAVTCESCSTI [RPS27A]")
1.47
>>> result_number("GRLDRKVEIPLPNEAGR [RPT4]")
3.16
